PROPERTY: melting point

Worked examples, 4 compounds total:
CN1Cc2c(-c3noc(CCl)n3)ncn2-c2cccc(C(F)(F)F)c2C1=O: 180 to 184 °C
O=C1/C(=C/c2ccccc2)N2CCC1CC2: 130 to 132 °C
CCCc1c(C(=O)C(C)C)c2ccc(C(=O)OC)cc2n1Cc1ccccc1OC: 103 to 105 °C
Cc1cccc(O[C@@H]2CN(Cc3ccccc3)C[C@H]2O)c1C (relative stereo): 100 to 104 °C

Given the entry O=C1c2c(-c3ccccc3F)noc2CCC1CCCN1CCN(c2ccccn2)CC1 (stereo not given) , report its measured melting point.
94 to 96 °C

====

PROPERTY: melting point

CCCCCCSc1nnc(N)s1: 113 to 115 °C
CC(C)(N)C1CN([C@@H]2Cc3ccccc3[C@H]2Oc2ccc(C#N)cc2Cl)C1: 93 °C

What value of melting point has been reported for the following molecule? "C=CCn1c(=O)c([N+](=O)[O-])c(O)c2ccccc21"
125 to 127 °C

I am curious: what melting point value has been reported for "COc1ccc(-c2c3c(cc4ccc(O)cc24)-c2ccc(O)cc2CO3)cc1" ?
200 to 203 °C

Using the record for OC1CSC(Oc2ccccc2-n2ccc3ccccc32)C(O)C1O (stereo not given) , report its melting point.
70 to 73 °C
